Answer each item with its documented MIC.
Test system: clinical P. aeruginosa isolates
Assay: microbe, parasite or virus in culture
Settings: Pseudomonas aeruginosa, 18 h, read-out: Antibiotic sensibility (MIC) of clinical P. aeruginosa isolate AUMC-Pa-2, strain AUMC-Pa-2; antibiotic alone
State the answer as a number, implicitly in µM.

Q) For the compound shown here, C[C@H]1COc2c(N3CCN(C)CC3)c(F)cc3c(=O)c(C(=O)O)cn1c23 [Levofloxacin] , give the reported MIC.
A) 0.5

Q) For the compound shown here, CO[C@H]1/C=C/O[C@@]2(C)Oc3c(C)c(O)c4c(O)c(c5c(nc6cc(C)ccn65)c4c3C2=O)NC(=O)/C(C)=C\C=C\[C@H](C)[C@H](O)[C@@H](C)[C@@H](O)[C@@H](C)[C@H](OC(C)=O)[C@@H]1C [Rifaximin] , give the reported MIC.
A) 8

Q) For the compound shown here, C[C@H]1[C@H](NC(=O)/C(=N\OC(C)(C)C(=O)O)c2csc(N)n2)C(=O)N1S(=O)(=O)O [Aztreonam] , give the reported MIC.
A) 4

Q) For the compound shown here, CC[C@H]1OC(=O)[C@H](C)[C@@H](O[C@H]2C[C@@](C)(OC)[C@@H](O)[C@H](C)O2)[C@H](C)[C@@H](O[C@@H]2O[C@H](C)C[C@H](N(C)C)[C@H]2O)[C@](C)(O)C[C@@H](C)CN(C)[C@H](C)[C@@H](O)[C@]1(C)O [Azithromycin] , give the reported MIC.
A) 128

Q) For the compound shown here, C[C@H]1c2cccc(O)c2C(=O)C2=C(O)[C@]3(O)C(=O)C(C(N)=O)=C(O)[C@@H](N(C)C)[C@@H]3[C@@H](O)[C@@H]21 [Doxycycline] , give the reported MIC.
A) 8

Q) For the compound shown here, NCC[C@H](O)C(=O)N[C@@H]1C[C@H](N)[C@@H](O[C@H]2O[C@H](CN)[C@@H](O)[C@H](O)[C@H]2O)[C@H](O)[C@H]1O[C@H]1O[C@H](CO)[C@@H](O)[C@H](N)[C@H]1O [Amikacin] , give the reported MIC.
A) 0.25

Q) For the compound shown here, CO[C@H]1/C=C/O[C@@]2(C)Oc3c(C)c(O)c4c(O)c(c(/C=N/N5CCN(C)CC5)c(O)c4c3C2=O)NC(=O)/C(C)=C\C=C\[C@H](C)[C@H](O)[C@@H](C)[C@@H](O)[C@@H](C)[C@H](OC(C)=O)[C@@H]1C [Rifampicin] , give the reported MIC.
A) 16

Q) For the compound shown here, CNC(C)C1CCC(N)C(OC2C(N)CC(N)C(OC3OCC(C)(O)C(NC)C3O)C2O)O1 (stereo not shown) [Gentamicin] , give the reported MIC.
A) 0.25

Data origin: paper PMC8445441
